Biological target: Lysine-specific demethylase 4D (Homo sapiens, UniProt Q6B0I6)
Sequence (Q6B0I6 whole entry): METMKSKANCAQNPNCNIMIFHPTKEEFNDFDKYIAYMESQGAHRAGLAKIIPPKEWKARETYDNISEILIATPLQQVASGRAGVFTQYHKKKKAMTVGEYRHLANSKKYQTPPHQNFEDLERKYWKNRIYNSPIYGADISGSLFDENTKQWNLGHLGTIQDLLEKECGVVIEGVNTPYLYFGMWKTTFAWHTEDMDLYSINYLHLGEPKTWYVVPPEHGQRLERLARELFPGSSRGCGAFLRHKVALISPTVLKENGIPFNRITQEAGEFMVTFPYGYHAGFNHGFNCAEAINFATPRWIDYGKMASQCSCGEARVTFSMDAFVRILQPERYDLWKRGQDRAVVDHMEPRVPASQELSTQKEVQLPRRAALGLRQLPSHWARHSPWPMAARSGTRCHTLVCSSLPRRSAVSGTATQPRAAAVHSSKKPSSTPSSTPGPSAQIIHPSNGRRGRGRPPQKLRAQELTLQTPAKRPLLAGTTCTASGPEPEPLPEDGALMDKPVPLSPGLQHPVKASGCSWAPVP
property-name: IC50 (µM)

INSERT INTO measurements (input_smiles, observed_result) VALUES
  ('N#Cc1cnn2c1nc(O)c1cccc([N+](=O)[O-])c12', 3.14);
